From: patent US20210040184A1

target: HIV-1 WITO4160.33 envelope (Env) on Env.IMC.LucR virus (HIV-1 clade B); test: cell-based or functional assay
Listed here: items and their measured IC50 of virus neutralization (TZM-BL, luciferase).
Enter your answer as a number in µg/mL; do not include the unit.

binder | value
Cd4bs_H53MS_H54GY (antibody, V domains shown) VH: ADLVQSGAVVKKPGDSVRISCEAQGYRFPDYIIHWIRRAPGQGPEWMGWMNPSYGQVNIPWKFQGRVSMTRDTSIETAFLDLRGLKSDDTAVYYCVRDRSNGSGKRFESSNWFLDLWGRGTAVTIQS VL: QSALTQPRSVSASPGQSVTISCTGTHNLVSWCQHQPGRAPKLLIYDFNKRPSGVPDRFSGSGSGGTASLTITGLQDDDDAEYFCWAYEAFGGGTKLTVL | 0.15

-- ask Please look at this binder and report its IC50 of virus neutralization (TZM-BL, luciferase): NglycoSA (antibody, V domains shown) VH: ADLVQSGAVVKKPGDSVRISCEAQGYRFPDYIIHWIRRAPGQGPEWMGWMNPMGGQVNIPWKFQGRVSMTRDTSIETAFLDLRGLKSDDTAVYYCVRDRSNGAGKRFESSNWFLDLWGRGTAVTIQS VL: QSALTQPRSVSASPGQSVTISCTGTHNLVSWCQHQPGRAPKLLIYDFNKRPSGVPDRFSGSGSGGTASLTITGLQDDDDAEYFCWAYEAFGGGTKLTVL
-- reply 0.179

-- ask Given NVS49-L1A2 (antibody, V domains shown) VH: ADLVQSGAVVKKPGDSVRISCEAQGYRFPDYIIHWIRRAPGQGPEWMGWMNPMGGQVNIPWKFQGRVSMTRDTSIETAFLDLRGLKSDDTAVYYCVRDRSNGSGKRFESSNWFLDLWGRGTAVTIQS VL: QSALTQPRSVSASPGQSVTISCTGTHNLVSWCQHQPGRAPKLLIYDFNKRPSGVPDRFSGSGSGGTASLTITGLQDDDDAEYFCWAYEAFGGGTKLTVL , respond with its IC50 of virus neutralization (TZM-BL, luciferase).
-- reply 0.2

-- ask For CysCV (antibody, V domains shown) VH: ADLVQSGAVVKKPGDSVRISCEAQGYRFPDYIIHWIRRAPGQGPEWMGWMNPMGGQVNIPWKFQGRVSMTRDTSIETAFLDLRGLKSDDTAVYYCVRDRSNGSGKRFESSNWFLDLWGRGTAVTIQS VL: QSALTQPRSVSASPGQSVTISCTGTHNLVSWVQHQPGRAPKLLIYDFNKRPSGVPDRFSGSGSGGTASLTITGLQDDDDAEYFCWAYEAFGGGTKLTVL , write its IC50 of virus neutralization (TZM-BL, luciferase).
-- reply 0.186

-- ask Item Germ12_NglycoSA_CysCV (antibody, V domains shown) VH: QVDLVQSGAVVKKPGDSVRVSCEAQGYRFPDYIIHWIRRAPGQGPEWMGWMNPMGGQVNIPWKFQGRVSMTRDTSIETAYMDLRGLRSDDTAVYYCVRDRSNGAGKRFESSNWFLDLWGRGTLVTVSS VL: QSALTQPRSVSGSPGQSVTISCTGTHNLVSWVQHQPGRAPKLLIYDFNKRPSGVPDRFSGSGSGGTASLTISGLQDEDDAEYFCWAYEAFGGGTKLTVL : provide IC50 of virus neutralization (TZM-BL, luciferase)
-- reply 0.488
